Cited source for all entries: patent US6906239B2

- Tested on: white-rot fungus
- measurementNotes: White-rot fungus cultured on bagasse from treated sugar cane, lignin and chitin staining (Examples 5, 6, 8)
- Type: cell-based, Phanerochaete chrysosporium
- conditionsUsed: sugar cane bagasse; 5 g drench at 4 and 2 weeks before harvest; fungus cultured three months; scale 9 to 0
List of Staining intensity Lignin values.
Give only the figure.

Problem: Value lookup for Staining intensity Lignin; key = O=Cc1cc(Br)c(O)c(Br)c1 [3,5-Dibromo-4-hydroxybenzaldehyde]
Solution: 5

Problem: Value lookup for Staining intensity Lignin; key = O=C(O)C=Cc1ccccc1 [Cinnamic Acid, reference compound]
Solution: 1

Problem: Value lookup for Staining intensity Lignin; key = O=Cc1ccc(O)cc1Cl [2-Chloro-4-hydroxybenzaldehyde]
Solution: 3

Problem: Value lookup for Staining intensity Lignin; key = O=C(O)C=Cc1cccc(Cl)c1
Solution: 5

Problem: Value lookup for Staining intensity Lignin; key = O=C(O)C=Cc1c(F)cccc1F
Solution: 5

* * *

- System: Soil microorganisms
- measurementNotes: In situ soil degradation of bagasse from treated sugar cane (Example 9)
- conditionsUsed: 10 grams drench at 4 and 2 weeks before harvest, buried in soil six months, scale 9 to 0
measurementKind: Staining intensity Chitin
Give only the figure.

[[record]]
compound = "O=C(O)C=Cc1ccccc1 [Cinnamic Acid, reference compound]"
testresult = 8

[[record]]
compound = "O=Cc1ccc(O)cc1Cl [2-Chloro-4-hydroxybenzaldehyde]"
testresult = 3

[[record]]
compound = "O=C(O)C=Cc1c(F)cccc1F"
testresult = 4


Then this compound:
Problem: Value lookup for Staining intensity Chitin; key = O=C(O)C=Cc1cccc(Cl)c1
Solution: 3
